Sourced from paper PMC5469758

tgt: TNFα (Homo sapiens)
Construct: purchased R&D Systems
Sequence (P01375 77-233 limits assumed): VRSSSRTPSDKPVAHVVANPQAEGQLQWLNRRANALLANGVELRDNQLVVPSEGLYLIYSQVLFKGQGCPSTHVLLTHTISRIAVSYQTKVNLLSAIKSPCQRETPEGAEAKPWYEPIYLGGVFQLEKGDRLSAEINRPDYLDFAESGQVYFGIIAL
measurement_description: Surface Acoustic Wave (SAW) biosensor gravimetric measurement of dissociation constants
Assay type: binding
condition_summary: two-site binding model, room temperature; read-out: Kd2 of TNFα/compound 1 complex
measurement_kind: pKd
The value called pKd is obtained by taking minus log10 of the concentration in mol/L.

Lab note: need pKd with TNFα (Homo sapiens) for entry Cc1c(Cl)cccc1N(CC(=O)N1CCN(Cc2ccccc2)CC1)S(=O)(=O)c1ccccc1 [Compound 1] , please look it up.
8.64

* * *

tgt: TNFα/TNFRII (Homo sapiens)
Sequence (P01375 77-233 limits assumed): as above
measurement_description: TNFα-TNFRII binding ELISA
Protocol: Microtiter plates were coated with 12.5 ng of TNFRI or TNFRII in 125 μl of PBS per well at 37 °C. The wells were washed, blocked with PBS/BSA 2% for three hours and washed as before. Serial dilutions of compounds were mixed with a fixed quantity of TNFα in PBS/BSA 1% and incubated two hours at 37 °C. 125 μl of the mix were added to the wells and plates were incubated overnight at 4 °C. […] Absorbance was measured at 450 nm.
measurement_kind: IC50 (µM)
Kindly answer with a numeric value in µM, unit omitted.

Lab note: need IC50 with TNFα/TNFRII (Homo sapiens) for entry `Cc1c(Cl)cccc1N(CC(=O)N1CCN(Cc2ccccc2)CC1)S(=O)(=O)c1ccccc1` , please look it up.
31

* * *

tgt: TNFα/TNFRI (Homo sapiens, UniProt P01375)
Sequence (P01375 77-233 limits assumed): as above
measurement_description: TNFα-TNFRI binding ELISA
measurement_kind: IC50
Kindly report the value followed by its unit.

Lab note: need IC50 with TNFα/TNFRI (Homo sapiens, UniProt P01375) for entry Cc1c(Cl)cccc1N(CC(=O)N1CCN(Cc2ccccc2)CC1)S(=O)(=O)c1ccccc1 [Compound 1] , please look it up.
37 µM

* * *

Tested on: human TNFα induced apoptosis on the L929 cell line
measurement_description: Neutralization of human TNFα induced apoptosis in L929 cells (MTT)
Format: cell-based
condition_summary: L929, L929 cell line, human TNFα; read-out: IC50, inhibition of TNFα induced apoptosis
measurement_kind: IC50 (µM)
Kindly answer with a numeric value in µM, unit omitted.

Given the compound `Cc1c(Cl)cccc1N(CC(=O)N1CCN(Cc2ccccc2)CC1)S(=O)(=O)c1ccccc1` , what is its reported IC50?
12
